Each item that follows carries a reported pIC50.
target: Programmed cell death 1 ligand/protein 1 (Homo sapiens)
Sequence (Q9NZQ7 whole entry): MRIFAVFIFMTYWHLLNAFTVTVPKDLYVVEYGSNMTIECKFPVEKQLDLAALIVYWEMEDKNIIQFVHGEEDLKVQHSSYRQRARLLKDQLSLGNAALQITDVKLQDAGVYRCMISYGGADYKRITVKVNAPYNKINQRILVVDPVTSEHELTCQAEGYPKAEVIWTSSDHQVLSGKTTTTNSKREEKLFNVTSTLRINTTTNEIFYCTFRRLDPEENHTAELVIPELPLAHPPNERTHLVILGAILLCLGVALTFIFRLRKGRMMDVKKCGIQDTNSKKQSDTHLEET
Sequence (Q15116 whole entry, further chain): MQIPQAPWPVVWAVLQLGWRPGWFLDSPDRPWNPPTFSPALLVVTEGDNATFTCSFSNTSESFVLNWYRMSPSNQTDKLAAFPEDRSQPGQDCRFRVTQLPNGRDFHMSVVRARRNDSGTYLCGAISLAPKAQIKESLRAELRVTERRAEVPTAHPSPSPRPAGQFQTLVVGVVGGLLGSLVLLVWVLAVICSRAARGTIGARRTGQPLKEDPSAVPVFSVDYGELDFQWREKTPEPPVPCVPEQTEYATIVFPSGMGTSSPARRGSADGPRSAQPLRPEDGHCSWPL
pIC50: −log10 of the molar value.

Example results:
- Molecule: "COc1cc(OCc2cccc(-c3cccc(CO)c3C)c2C)cc(OC)c1CN [US11787766, Compound 11]"
  pIC50: "< 6.00"
- Molecule: "COc1nc(OCc2cccc(-c3cccc(CO)c3C)c2C)ccc1CN [US11787766, Compound 3]"
  pIC50: "< 6.00"
- Molecule: "COc1nc(OCc2cccc(-c3cccc(COc4ccc(CNCCNC(C)=O)c(OC)n4)c3Cl)c2C)ccc1CNCCNC(C)=O [US11787766, Compound 30]"
  pIC50: "> 8.00"
- Molecule: "COc1nc(OCc2cccc(-c3cccc(COc4ccc(CNCCNC(C)=O)c(OC)n4)c3C)c2C)ccc1C#N [US11787766, Compound 17]"
  pIC50: "< 6.00"

pIC50 for Programmed cell death 1 ligand/protein 1 (Homo sapiens) with input COc1nc(OCc2cccc(-c3cccc(CN)c3C)c2)ccc1CN [US11787766, Compound 16] equals < 6.00

The recorded pIC50 with Programmed cell death 1 ligand/protein 1 (Homo sapiens) for COc1nc(OCc2cccc(-c3cccc(COc4ccc(C#N)c(OC)n4)c3C)c2C)ccc1C#N [US11787766, Compound 5] was < 6.00

Record COc1nc(OCc2cccc(-c3cccc(COc4ccc(CN5C[C@H](O)C[C@H]5CO)c(OC)n4)c3Cl)c2Cl)ccc1CN1C[C@H](O)C[C@H]1CO [US11787766, Compound 69] has Programmed cell death 1 ligand/protein 1 (Homo sapiens) pIC50 equal to > 8.00

With Programmed cell death 1 ligand/protein 1 (Homo sapiens) as the test system, COc1nc(OCc2cccc(-c3cccc(CO)c3C)c2C)ccc1CNCCNC(C)=O [US11787766, Compound 2] showed pIC50 of < 6.00

Recorded values, source BindingDB's records for patent US11787766.
